Would you mind telling me the reported IC50 of each entry?
# experiment.notes: Inhibition of caspase-like activity of 20S proteasome in rabbit 20S proteasome pre-incubated for 10 mins before Suc-Leu-Leu-Val-Tyr-AMC substrate addition and measured after 2 hrs by fluorescence assay
# Set-up: species or system Oryctolagus cuniculus
Form entry: value (nM) — number only.

Recorded result, CC(C)C[C@H](NC(=O)[C@H](Cc1ccccc1)NC(=O)c1cnccn1)B(O)O [BORTEZOMIB] , IC50: 76

The molecule listed as CC(C)C[C@H](NC(=O)[C@@H](NC(=O)c1cccc(/N=N\c2ccccc2)c1)[C@@H](C)O)B1OC2C[C@@H]3C[C@@H](C3(C)C)[C@]2(C)O1 (stereo partly drawn) shows IC50 equal to 759

Recorded result, CC(C)C[C@H](NC(=O)[C@@H](NC(=O)c1cccc(/N=N\c2ccc(-c3ccccc3)cc2)c1)[C@@H](C)O)B1OC2C[C@@H]3C[C@@H](C3(C)C)[C@]2(C)O1 (stereo partly drawn) , IC50: 727

* * *

# experiment.notes: Cytotoxicity against human MCF10A cells incubated for 48 hrs by 7AAD dye based flow cytometry
# Assay type: cell-based, MCF-10A
# condition.context: read-out: LD50
measured.parameter: CC50 at 48 h (nM)
Answer format: numeric, nM implied, no suffix.

# CC50 at 48 h (compound: CC(C)C[C@H](NC(=O)[C@H](Cc1ccc(/N=N\c2ccc(-c3ccccc3)cc2)cc1)NC(=O)OC(C)(C)C)B1OC2C[C@@H]3C[C@@H](C3(C)C)[C@]2(C)O1 (stereo partly specified) ) is 683

* * *

# experiment.notes: Inhibition of caspase-like activity of 20S proteasome in rabbit 20S proteasome pre-incubated for 10 mins before Suc-Leu-Leu-Val-Tyr-AMC substrate addition and measured after 2 hrs by fluorescence assay
# Design: species or system Oryctolagus cuniculus
Would you mind telling me the reported log10 IC50 of each entry?
Please interpret these as log10 of IC50 where IC50 is in µM.

Sample CC(C)C[C@H](NC(=O)[C@H](Cc1ccc(/N=N\c2ccc(-c3ccccc3)cc2)cc1)NC(=O)OC(C)(C)C)B1OC2C[C@@H]3C[C@@H](C3(C)C)[C@]2(C)O1 (stereo partly specified) ; log10 IC50 observed: -0.52

Short answer for Cc1cc(C)cc(/N=N/c2ccc(C[C@H](NC(=O)OC(C)(C)C)C(=O)N[C@@H](CC(C)C)B3OC4C[C@@H]5C[C@@H](C5(C)C)[C@]4(C)O3)cc2)c1 (stereo partly specified) : log10 IC50 was -0.68

Reported log10 IC50 of CC(C)C[C@H](NC(=O)[C@@H](NC(=O)c1cccc(/N=N/c2ccc(-c3ccccc3)cc2)c1)[C@@H](C)O)B1OC2C[C@@H]3C[C@@H](C3(C)C)[C@]2(C)O1 (stereo partly specified) : -0.30

For record CC(C)C[C@H](NC(=O)[C@H](Cc1ccc(/N=N\c2ccccc2)cc1)NC(=O)OC(C)(C)C)B1OC2C[C@@H]3C[C@@H](C3(C)C)[C@]2(C)O1 (stereo partly specified) the listed log10 IC50 is -0.96

The compound listed as CC(C)C[C@H](NC(=O)[C@@H](NC(=O)c1cccc(-c2ccccc2)n1)[C@@H](C)O)B(O)O [DELANZOMIB] shows log10 IC50 equal to -1.23

// log10 IC50 value for CC(C)C[C@H](NC(=O)[C@@H](NC(=O)c1cccc(/N=N/c2ccccc2)c1)[C@@H](C)O)B1OC2C[C@@H]3C[C@@H](C3(C)C)[C@]2(C)O1 (stereo partly specified) : -0.06
